Method: Michaelis constant in N-demethylation.
Format: ADME
Property Name: Km (µM)
Write it as a number; the unit µM goes unstated.

1) CCOc1ccc2c3c1OC1C(O)C=CC4C(C2)N(C)CCC341.Cl (configuration not stated)	245

Consider the additional molecule presented here.
For the molecule shown here, CCCCCCCCOc1ccc2c3c1OC1C(O)C=CC4C(C2)N(C)CCC341.Cl (configuration not stated) , give the reported Km. 67

###

Method: Michaelis constant in O-dealkylation.
Format: ADME
In this section, each of the molecules is paired with its reported Km.
Write it as a number; the unit µM goes unstated.

1. CCCCCCCCOc1ccc2c3c1OC1C(O)C=CC4C(C2)N(C)CCC341.Cl (configuration not stated)	125

Consider the additional molecule presented here.
For the molecule shown here, CCOc1ccc2c3c1OC1C(O)C=CC4C(C2)N(C)CCC341.Cl (configuration not stated) , give the reported Km. 55

###

Method: Maximum optimal dose expressed as OD max X 10e-(2/3) mg
Type: ADME
Response field label takes t when OD max is strictly below 2 mg and f in all other cases.

These solved cases illustrate the format of a correct answer.
1. CCCCCCCCCOc1ccc2c3c1OC1C(O)C=CC4C(C2)N(C)CCC341.Cl (centres undefined)	f
2. CCCCCCCOc1ccc2c3c1OC1C(O)C=CC4C(C2)N(C)CCC341.Cl (centres undefined)	t
3. CCCCOc1ccc2c3c1OC1C(O)C=CC4C(C2)N(C)CCC341.Cl (centres undefined)	f
4. CCOc1ccc2c3c1OC1C(O)C=CC4C(C2)N(C)CCC341.Cl (centres undefined)	t
5. CCCCCCCCOc1ccc2c3c1OC1C(O)C=CC4C(C2)N(C)CCC341.Cl (centres undefined)	f

Say whether its OD max is strictly beneath 2 mg. Entry: CCCOc1ccc2c3c1OC1C(O)C=CC4C(C2)N(C)CCC341.Cl (centres undefined) t

Say whether its OD max is strictly beneath 2 mg. Entry: "COc1ccc2c3c1O[C@H]1[C@@H](O)C=C[C@H]4[C@@H](C2)N(C)CC[C@@]341.O=S(=O)(O)O" t

Say whether its OD max is strictly beneath 2 mg. Entry: CCCCCCOc1ccc2c3c1OC1C(O)C=CC4C(C2)N(C)CCC341.Cl (centres undefined) t

###

Method: Spectral dissociation constant of the compound.
Assay type: ADME
Conditions Used: read-out: Ks
Property Name: Kd
Could you kindly put the unit after your number?

See these solved cases before continuing.
1) CCCCCCCOc1ccc2c3c1OC1C(O)C=CC4C(C2)N(C)CCC341.Cl (stereo not given)	11.4 µM
2) CCCOc1ccc2c3c1OC1C(O)C=CC4C(C2)N(C)CCC341.Cl (stereo not given)	28.4 µM
3) CCCCCOc1ccc2c3c1OC1C(O)C=CC4C(C2)N(C)CCC341.Cl (stereo not given)	14.6 µM
4) CCCCOc1ccc2c3c1OC1C(O)C=CC4C(C2)N(C)CCC341.Cl (stereo not given)	18.1 µM

Consider the additional molecule presented here.
For the molecule shown here, CCOc1ccc2c3c1OC1C(O)C=CC4C(C2)N(C)CCC341.Cl (stereo not given) , give the reported Kd. 29.1 µM
